Observed IC90, system UniProt:Q72547.
Please answer using the number first and the unit second.

Fill in IC90 for Nc1ccc2c(c1)C(C#CC1CC1)(C(F)(F)F)OC(=O)N2 (centres undefined) tested with UniProt:Q72547.
20.6 nM

Report measured IC90 on UniProt:Q72547; entry: CCC#CC1(C(F)(F)F)OC(=O)Nc2cccc(F)c21 (centres undefined)
4.18 nM

Send back UniProt:Q72547 IC90 of CC(=O)Nc1ccc2c(c1)C(C#CC(C)C)(C(F)(F)F)OC(=O)N2 (centres undefined) only.
500 nM

Give IC90 for this entry on UniProt:Q72547: CC(=O)Nc1ccc2c(c1)C(C#CC1CC1)(C(F)(F)F)OC(=O)N2 (centres undefined)
296 nM

Report its IC90 with UniProt:Q72547 as the test system: CCC#CC1(C(F)(F)F)OC(=O)Nc2ccc(N)cc21 (centres undefined)
45.7 nM

Would you please give the reported IC90 of O=C1Nc2ccc([N+](=O)[O-])cc2C(C#CC2CC2)(C(F)(F)F)O1 (centres undefined) with UniProt:Q72547?
0.83 nM

Give IC90 only, for CCCC#CC1(C(F)(F)F)OC(=O)Nc2cccc(F)c21 (centres undefined) , using UniProt:Q72547 data.
5.64 nM

GET IC90 | system: UniProt:Q72547 | item: CCC#CC1(C(F)(F)F)OC(=O)Nc2ccc([N+](=O)[O-])cc21 (centres undefined)
2.23 nM

Lab note: record IC90 of O=C1Nc2cccc(F)c2C(C#CC2CC2)(C(F)(F)F)O1 (centres undefined) tested on UniProt:Q72547.
4.34 nM

---

# System Name: Human immunodeficiency virus type 1 reverse transcriptase (Human immunodeficiency virus 1)
Readout: IC50 (nM)
Return type: number; implicit unit nM.

Look over these answered cases.
- Molecule: "CCCC#CC1(C(F)(F)F)OC(=O)Nc2ccc(N)cc21 (stereo not given)"
  IC50 / nM: 1510
- Molecule: "Nc1ccc2c(c1)C(C#CC1CC1)(C(F)(F)F)OC(=O)N2 (stereo not given)"
  IC50 / nM: 802
- Molecule: "CCCC#CC1(C(F)(F)F)OC(=O)Nc2ccc([N+](=O)[O-])cc21 (stereo not given)"
  IC50 / nM: 304
- Molecule: "CCCC#CC1(C(F)(F)F)OC(=O)Nc2cccc(F)c21 (stereo not given)"
  IC50 / nM: 156
- Molecule: "O=C1Nc2ccc([N+](=O)[O-])cc2C(C#CC2CC2)(C(F)(F)F)O1 (stereo not given)"
  IC50 / nM: 209
- Molecule: "CNc1ccc2c(c1)C(C#CC1CC1)(C(F)(F)F)OC(=O)N2 (stereo not given)"
  IC50 / nM: 608

Continue with the next molecule.
Please report the measured IC50 for O=C1Nc2cccc(F)c2C(C#CC2CC2)(C(F)(F)F)O1 (stereo not given)
78

---

# System Name: Human immunodeficiency virus type 1 reverse transcriptase (Human immunodeficiency virus 1) (UniProt Q72547)
Readout: IC90
A complete answer gives the number and then names the unit.

- Compound: "CCCC#CC1(C(F)(F)F)OC(=O)Nc2ccc(N)cc21 (stereo unspecified)"
  IC90: "33.5 nM"
- Compound: "CC(C)C#CC1(C(F)(F)F)OC(=O)Nc2ccc([N+](=O)[O-])cc21 (stereo unspecified)"
  IC90: "3.35 nM"
- Compound: "CC(C)C#CC1(C(F)(F)F)OC(=O)Nc2ccc(N)cc21 (stereo unspecified)"
  IC90: "27.5 nM"
- Compound: "CNc1ccc2c(c1)C(C#CC(C)C)(C(F)(F)F)OC(=O)N2 (stereo unspecified)"
  IC90: "10.2 nM"
- Compound: "CNc1ccc2c(c1)C(C#CC1CC1)(C(F)(F)F)OC(=O)N2 (stereo unspecified)"
  IC90: "9.02 nM"

Now examine the next entry.
Name the recorded IC90 of the compound listed here: CCCC#CC1(C(F)(F)F)OC(=O)Nc2ccc([N+](=O)[O-])cc21 (stereo unspecified)
4.57 nM

---

Measured pIC50, listed per entry.
# System Name: Human immunodeficiency virus type 1 reverse transcriptase (Human immunodeficiency virus 1, UniProt Q72547)
Recall that pIC50 is obtained by taking minus log10 of the concentration measured in molar.

Study these solved cases before continuing.
- Molecule: "CC(C)C#CC1(C(F)(F)F)OC(=O)Nc2ccc([N+](=O)[O-])cc21 (stereo not drawn)"
  pIC50: 6.70
- Molecule: "CCC#CC1(C(F)(F)F)OC(=O)Nc2cccc(F)c21 (stereo not drawn)"
  pIC50: 6.90
- Molecule: "CC(C)C#CC1(C(F)(F)F)OC(=O)Nc2ccc(N)cc21 (stereo not drawn)"
  pIC50: 6.05
- Molecule: "CCC#CC1(C(F)(F)F)OC(=O)Nc2ccc(N)cc21 (stereo not drawn)"
  pIC50: 5.72
- Molecule: "CNc1ccc2c(c1)C(C#CC(C)C)(C(F)(F)F)OC(=O)N2 (stereo not drawn)"
  pIC50: 6.33

Answer with the recorded pIC50 of CCC#CC1(C(F)(F)F)OC(=O)Nc2ccc([N+](=O)[O-])cc21 (stereo not drawn) only.
6.56
